A collection of molecules and their measured pIC50
System: 521955-158-R6-J3-PDC complex spheroid growth, % test/control
Test: Anticancer human tumor 521955-158-R6-J3-PDC patient-derived pancreatic carcinoma cell line growth inhibition [Asc]
Details: curve of compound
pIC50: −log10 of the molar value.

molecule	target_of_assay	pIC50
CCN1CCN(Cc2ccc(Nc3ncc(F)c(-c4cc(F)c5nc(C)n(C(C)C)c5c4)n3)nc2)CC1	521955-158-R6-J3-PDC complex spheroid growth, % test/control	< 6.00
C=CC(=O)N1CCN(c2nc(=O)n(-c3c(C)ccnc3C(C)C)c3nc(-c4c(O)cccc4F)c(F)cc23)C(C)C1 (centres undefined)	521955-158-R6-J3-PDC complex spheroid growth, % test/control	< 5.00
Cn1ncnc1[C@H]1c2n[nH]c(=O)c3cc(F)cc(c23)N[C@@H]1c1ccc(F)cc1	521955-158-R6-J3-PDC complex spheroid growth, % test/control	< 7.00
O=C(c1cc(Cc2n[nH]c(=O)c3ccccc23)ccc1F)N1CCN(C(=O)C2CC2)CC1	521955-158-R6-J3-PDC complex spheroid growth, % test/control	< 5.00
CNC(C)C(=O)NC1CN(S(=O)(=O)c2cccc(S(=O)(=O)N3CCC4CCC(C(=O)NC(c5ccccc5)c5ccccc5)N4C(=O)C(NC(=O)C(C)NC)C3)c2)CCC2CCC(C(=O)NC(c3ccccc3)c3ccccc3)N2C1=O (centres undefined)	521955-158-R6-J3-PDC complex spheroid growth, % test/control	< 6.00
CCN1C(C(=O)NC23CCC(C(=O)O)(CC2)CC3)C(c2cccc(Cl)c2F)C2(C(=O)Nc3cc(Cl)ccc32)C12CCCCC2 (centres undefined)	521955-158-R6-J3-PDC complex spheroid growth, % test/control	< 5.52
Cc1nc(N2CCC3(CC2)COC(C)C3N)c(CO)nc1Sc1ccnc(N)c1Cl (centres undefined)	521955-158-R6-J3-PDC complex spheroid growth, % test/control	< 5.52
NC(=O)C(=Cn1cnc(-c2cc(C(F)(F)F)cc(C(F)(F)F)c2)n1)c1cncnc1	521955-158-R6-J3-PDC complex spheroid growth, % test/control	< 6.52
NC1CCC(NC2CC2c2ccccc2)CC1 (centres undefined)	521955-158-R6-J3-PDC complex spheroid growth, % test/control	< 7.00

====

Test system: 521955-158-R6-J3-PDC complex spheroid growth, % test/control
Assay: Anticancer human tumor 521955-158-R6-J3-PDC cell line growth inhibition [Asc];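 note: spheroids exposed to compounds for 7 days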
Conditions: curve of first compound; second compound 0.03 µM
pIC50: −log10 of the molar value.
endpoint: pIC50

molecule	quantitative_result
COc1c(OCCCN2CCOCC2)ccc2c3n(c(=NC(=O)c4cnc(N)nc4)nc12)CCN3 + CCN1C(C(=O)NC23CCC(C(=O)O)(CC2)CC3)C(c2cccc(Cl)c2F)C2(C(=O)Nc3cc(Cl)ccc32)C12CCCCC2	6.44
C=C(F)C(=O)N1CCN(c2nc(OCC3CCCN3C)nc3c2CCN(c2cccc4cccc(Cl)c24)C3)CC1CC#N (stereo not given) + CCN1C(C(=O)NC23CCC(C(=O)O)(CC2)CC3)C(c2cccc(Cl)c2F)C2(C(=O)Nc3cc(Cl)ccc32)C12CCCCC2	5.28
C#Cc1c(F)ccc2cc(O)cc(-c3ncc4c(N5CC6CCC(C5)N6)nc(OCC56CCCN5CC(F)C6)nc4c3F)c12 (stereo not given) + CCN1C(C(=O)NC23CCC(C(=O)O)(CC2)CC3)C(c2cccc(Cl)c2F)C2(C(=O)Nc3cc(Cl)ccc32)C12CCCCC2	6.48
O=C(c1ccc(F)c(F)c1Nc1ccc(I)cc1F)N1CC(O)([C@@H]2CCCCN2)C1 + CCN1C(C(=O)NC23CCC(C(=O)O)(CC2)CC3)C(c2cccc(Cl)c2F)C2(C(=O)Nc3cc(Cl)ccc32)C12CCCCC2	6.23

====

Tested on: 521955-158-R6-J3-PDC complex spheroid growth, % test/control
Assay: Anticancer human tumor 521955-158-R6-J3-PDC cell line growth inhibition [Asc];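 note: spheroids exposed to compounds for 7 days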;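 for viability, T/C: 100% = DMSO vehicle control wells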
Conditions: second compound 0.316 µM; first compound 0.001 µM; stronger effect = lower value
List of viability, T/C values.

molecule	viability, T/C / %
Cn1ncnc1[C@H]1c2n[nH]c(=O)c3cc(F)cc(c23)N[C@@H]1c1ccc(F)cc1 + CNC(C)C(=O)NC1CN(S(=O)(=O)c2cccc(S(=O)(=O)N3CCC4CCC(C(=O)NC(c5ccccc5)c5ccccc5)N4C(=O)C(NC(=O)C(C)NC)C3)c2)CCC2CCC(C(=O)NC(c3ccccc3)c3ccccc3)N2C1=O	72.6
NC1CCC(NC2CC2c2ccccc2)CC1 (centres undefined) + Cc1c(S(C)(=O)=O)c(-c2cc(F)cc(N3CCN(c4ccc(NS(=O)(=O)c5ccc(NC(CCN6CCC(C(=O)OCCCP(=O)(O)O)CC6)CSc6ccccc6)c(S(=O)(=O)C(F)(F)F)c5)cc4)CC3)c2)c(-c2ccc(Cl)cc2)n1C(C)C	51.2
Cn1ncnc1[C@H]1c2n[nH]c(=O)c3cc(F)cc(c23)N[C@@H]1c1ccc(F)cc1 + Cc1c(S(C)(=O)=O)c(-c2cc(F)cc(N3CCN(c4ccc(NS(=O)(=O)c5ccc(NC(CCN6CCC(C(=O)OCCCP(=O)(O)O)CC6)CSc6ccccc6)c(S(=O)(=O)C(F)(F)F)c5)cc4)CC3)c2)c(-c2ccc(Cl)cc2)n1C(C)C	54.2
NC1CCC(NC2CC2c2ccccc2)CC1 (centres undefined) + CNC(C)C(=O)NC1CN(S(=O)(=O)c2cccc(S(=O)(=O)N3CCC4CCC(C(=O)NC(c5ccccc5)c5ccccc5)N4C(=O)C(NC(=O)C(C)NC)C3)c2)CCC2CCC(C(=O)NC(c3ccccc3)c3ccccc3)N2C1=O	89.7

====

Tested on: 521955-158-R6-J3-PDC complex spheroid growth, % test/control
Test: Anticancer human tumor 521955-158-R6-J3-PDC cell line growth inhibition [Asc];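 note: spheroids exposed to compounds for 7 days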;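 for viability, T/C: 100% = DMSO vehicle control wells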
Details: second compound 3.16 µM; first compound 0.316 µM; stronger effect = lower value
endpoint: viability, T/C

molecule	target_of_assay	result
COc1c(OCCCN2CCOCC2)ccc2c3n(c(=NC(=O)c4cnc(N)nc4)nc12)CCN3 + Cc1c(S(C)(=O)=O)c(-c2cc(F)cc(N3CCN(c4ccc(NS(=O)(=O)c5ccc(NC(CCN6CCC(C(=O)OCCCP(=O)(O)O)CC6)CSc6ccccc6)c(S(=O)(=O)C(F)(F)F)c5)cc4)CC3)c2)c(-c2ccc(Cl)cc2)n1C(C)C	521955-158-R6-J3-PDC complex spheroid growth, % test/control	4.31%
CCN1CCN(Cc2ccc(Nc3ncc(F)c(-c4cc(F)c5nc(C)n(C(C)C)c5c4)n3)nc2)CC1 + Cc1c(S(C)(=O)=O)c(-c2cc(F)cc(N3CCN(c4ccc(NS(=O)(=O)c5ccc(NC(CCN6CCC(C(=O)OCCCP(=O)(O)O)CC6)CSc6ccccc6)c(S(=O)(=O)C(F)(F)F)c5)cc4)CC3)c2)c(-c2ccc(Cl)cc2)n1C(C)C	521955-158-R6-J3-PDC complex spheroid growth, % test/control	24.2%
C=C(F)C(=O)N1CCN(c2nc(OCC3CCCN3C)nc3c2CCN(c2cccc4cccc(Cl)c24)C3)CC1CC#N (stereo not given) + Cc1c(S(C)(=O)=O)c(-c2cc(F)cc(N3CCN(c4ccc(NS(=O)(=O)c5ccc(NC(CCN6CCC(C(=O)OCCCP(=O)(O)O)CC6)CSc6ccccc6)c(S(=O)(=O)C(F)(F)F)c5)cc4)CC3)c2)c(-c2ccc(Cl)cc2)n1C(C)C	521955-158-R6-J3-PDC complex spheroid growth, % test/control	15.8%
O=C(c1cc(Cc2n[nH]c(=O)c3ccccc23)ccc1F)N1CCN(C(=O)C2CC2)CC1 + Cc1c(S(C)(=O)=O)c(-c2cc(F)cc(N3CCN(c4ccc(NS(=O)(=O)c5ccc(NC(CCN6CCC(C(=O)OCCCP(=O)(O)O)CC6)CSc6ccccc6)c(S(=O)(=O)C(F)(F)F)c5)cc4)CC3)c2)c(-c2ccc(Cl)cc2)n1C(C)C	521955-158-R6-J3-PDC complex spheroid growth, % test/control	17.1%
O=C(c1ccc(F)c(F)c1Nc1ccc(I)cc1F)N1CC(O)([C@@H]2CCCCN2)C1 + Cc1c(S(C)(=O)=O)c(-c2cc(F)cc(N3CCN(c4ccc(NS(=O)(=O)c5ccc(NC(CCN6CCC(C(=O)OCCCP(=O)(O)O)CC6)CSc6ccccc6)c(S(=O)(=O)C(F)(F)F)c5)cc4)CC3)c2)c(-c2ccc(Cl)cc2)n1C(C)C	521955-158-R6-J3-PDC complex spheroid growth, % test/control	1.36%

====

Test system: 521955-158-R6-J3-PDC complex spheroid growth, % test/control
Assay: Anticancer human tumor 521955-158-R6-J3-PDC cell line growth inhibition [Asc]; active means viability on the fitted dose curve at most 10% of control; inactive means the rest;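 note: spheroids exposed to compounds for 7 days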
Conditions: second compound 0.00316 µM; first compound 10 µM
Text: Multicellular complex tumor spheroid response to apoptosis pathway targeting inhibitors Alrizomadlin, Pelcitoclax, and Dasminapant in combination with a variety of drugs and investigational agents in selected tumor cell lines […] Compounds. […] If the clinical Cmax for an agent had not been determined, the highest concentration tested was 10 microM. […]
Classes used: Y = active, N = inactive

molecule	cat
C=C(F)C(=O)N1CCN(c2nc(OCC3CCCN3C)nc3c2CCN(c2cccc4cccc(Cl)c24)C3)CC1CC#N (centres undefined) + CNC(C)C(=O)NC1CN(S(=O)(=O)c2cccc(S(=O)(=O)N3CCC4CCC(C(=O)NC(c5ccccc5)c5ccccc5)N4C(=O)C(NC(=O)C(C)NC)C3)c2)CCC2CCC(C(=O)NC(c3ccccc3)c3ccccc3)N2C1=O	Y
C#Cc1c(F)ccc2cc(O)cc(-c3ncc4c(N5CC6CCC(C5)N6)nc(OCC56CCCN5CC(F)C6)nc4c3F)c12 (centres undefined) + CNC(C)C(=O)NC1CN(S(=O)(=O)c2cccc(S(=O)(=O)N3CCC4CCC(C(=O)NC(c5ccccc5)c5ccccc5)N4C(=O)C(NC(=O)C(C)NC)C3)c2)CCC2CCC(C(=O)NC(c3ccccc3)c3ccccc3)N2C1=O	N
C=CC(=O)N1CCN(c2nc(=O)n(-c3c(C)ccnc3C(C)C)c3nc(-c4c(O)cccc4F)c(F)cc23)C(C)C1 (centres undefined) + CNC(C)C(=O)NC1CN(S(=O)(=O)c2cccc(S(=O)(=O)N3CCC4CCC(C(=O)NC(c5ccccc5)c5ccccc5)N4C(=O)C(NC(=O)C(C)NC)C3)c2)CCC2CCC(C(=O)NC(c3ccccc3)c3ccccc3)N2C1=O	N
O=C(c1cc(Cc2n[nH]c(=O)c3ccccc23)ccc1F)N1CCN(C(=O)C2CC2)CC1 + CNC(C)C(=O)NC1CN(S(=O)(=O)c2cccc(S(=O)(=O)N3CCC4CCC(C(=O)NC(c5ccccc5)c5ccccc5)N4C(=O)C(NC(=O)C(C)NC)C3)c2)CCC2CCC(C(=O)NC(c3ccccc3)c3ccccc3)N2C1=O	N
